This collection of values is drawn from ChEMBL document CHEMBL1149046.

- PROTOCOL NOTES: Toxicity in brine shrimp at 500 ppm
- Assay type: organism-based
- RUN CONDITIONS: artemia, in vivo
Entries and their survival at 500 ppm
MEASURED ATTRIBUTE: survival at 500 ppm (%)

COMPOUND STRING	MEASURED ATTRIBUTE	READOUT NUMBER
CC(=O)OC[C@H]1O[C@@H](OC(=O)/C(C)=C(\C)C[C@@H](O)[C@@H](C)[C@H]2CC[C@H]3[C@@H]4CC=C5C[C@@H](O[C@@H]6O[C@H](CO)[C@@H](O)[C@H](O)[C@H]6O)C[C@H](O)[C@]5(C)[C@H]4CC[C@]23C)[C@H](O[C@@H]2O[C@H](COC(C)=O)[C@@H](O[C@@H]3O[C@H](CO)[C@@H](O)[C@H](O)[C@H]3O)[C@H](O)[C@H]2O)[C@@H](O)[C@@H]1O	survival at 500 ppm	100
C/C(C[C@@H](O)[C@@H](C)[C@H]1CC[C@H]2[C@@H]3CC=C4C[C@@H](O[C@@H]5O[C@H](CO)[C@@H](O)[C@H](O)[C@H]5O)C[C@H](O)[C@]4(C)[C@H]3CC[C@]12C)=C(/C)C(=O)O[C@@H]1O[C@H](CO)[C@@H](O)[C@H](O)[C@H]1O[C@@H]1O[C@H](CO)[C@@H](O)[C@H](O)[C@H]1O	survival at 500 ppm	100
CC(=O)OC[C@H]1O[C@@H](OC(=O)/C(C)=C(\C)C[C@@H](O)[C@@H](C)[C@H]2CC[C@H]3[C@@H]4CC=C5C[C@@H](O[C@@H]6O[C@H](CO)[C@@H](O)[C@H](O)[C@H]6O)C[C@H](O)[C@]5(C)[C@H]4CC[C@]23C)[C@H](O[C@@H]2O[C@H](CO)[C@@H](O)[C@H](O)[C@H]2O)[C@@H](O)[C@@H]1O	survival at 500 ppm	100

###

- PROTOCOL NOTES: Toxicity in brine shrimp at 500 ppm
- Type: organism-based
- RUN CONDITIONS: artemia, in vivo
MEASURED ATTRIBUTE: survival at 500 ppm (%)

COMPOUND STRING	MEASURED ATTRIBUTE	READOUT NUMBER
CC(=O)OC[C@H]1O[C@@H](OC(=O)/C(C)=C(\C)C[C@@H](O)[C@@H](C)[C@H]2CC[C@H]3[C@@H]4CC=C5C[C@@H](O)C[C@H](O)[C@]5(C)[C@H]4[C@@H](O)C[C@]23C)[C@H](O[C@@H]2O[C@H](CO)[C@@H](O)[C@H](O)[C@H]2O)[C@@H](O)[C@@H]1O	survival at 500 ppm	100
CC(=O)OC[C@H]1O[C@@H](OC(=O)/C(C)=C(\C)C[C@@H](O)[C@@H](C)[C@H]2CC[C@H]3[C@@H]4CC=C5C[C@@H](O[C@@H]6O[C@H](CO)[C@@H](O)[C@H](O)[C@H]6O)C[C@H](O)[C@]5(C)[C@H]4CC[C@]23C)[C@H](O[C@@H]2O[C@H](CO)[C@@H](O[C@@H]3O[C@H](CO)[C@@H](O)[C@H](O)[C@H]3O)[C@H](O)[C@H]2O)[C@@H](O)[C@@H]1O	survival at 500 ppm	100
C/C(C[C@@H](O)[C@@H](C)[C@H]1CC[C@H]2[C@@H]3CC=C4C[C@@H](O)C[C@H](O)[C@]4(C)[C@H]3[C@@H](O)C[C@]12C)=C(/C)C(=O)O[C@@H]1O[C@H](CO)[C@@H](O)[C@H](O)[C@H]1O	survival at 500 ppm	100
